Test: Selectivity index, ratio of GI50 for Cytotoxicity against human hTERT-BJ cells to ratio of GI50 for antiproliferative activity against human T47D cells
Type: toxicity, cell-based
Conditions: hTERT-BJ cells versus T47D cells, read-out: RatioGI50
Value Type: selectivity ratio

Exercise: Quote selectivity ratio reported for `Cc1cc(=O)oc2cc(N=C=[Se])ccc12` please.
Key: ≤ 14

---

Catalogue of compounds with associated log10 GI50 at 48 h
Experiment: Cytotoxicity against human hTERT-BJ cells assessed as growth inhibition measured after 48 hrs by sulforhodamine B assay
Assay type: cell-based
Details: hTERT-BJ cells
Base-10 log of GI50 at 48 h, unit µM.

Some compounds with recorded log10 GI50 at 48 h:
1. Cc1cc(=O)oc2cc(NC(=[Se])Nc3ccc4c(C)cc(=O)oc4c3)ccc12 = 0.69
2. Cc1cc(=O)oc2cc(NC(=[Se])Nc3ccc(Br)cc3)ccc12 = 0.64
3. Cc1cc(=O)oc2cc(NC(=[Se])Nc3ccc(C(F)(F)F)cc3)ccc12 = 1.51

Exercise: Look up log10 GI50 at 48 h of `Cc1cc(=O)oc2cc(N=C=[Se])ccc12` and report it.
Key: 1.70

Exercise: Indicate the recorded log10 GI50 at 48 h value for this compound: `CCCOC(=[Se])Nc1ccc2c(C)cc(=O)oc2c1`
Key: 1.52

Exercise: Indicate the recorded log10 GI50 at 48 h value for this compound: `CCCCNC(=[Se])Nc1ccc2c(C)cc(=O)oc2c1`
Key: 0.49

---

Tested on: T47D
Assay: Antiproliferative activity against human T47D cells assessed as growth inhibition measured after 48 hrs by sulforhodamine B assay
Type: functional
Item-by-item account of GI50

1. COC(=[Se])Nc1ccc2c(C)cc(=O)oc2c1 = > 100 µM

Exercise: Give a short answer stating reported GI50 for `CCOC(=[Se])Nc1ccc2c(C)cc(=O)oc2c1` .
Key: > 100 µM

Exercise: Read the entry `Cc1cc(=O)oc2cc(NC(=[Se])Nc3ccccc3)ccc12` and write its reported GI50.
Key: 24 µM

Exercise: Provide one value: measured GI50 of `CCCOC(=[Se])Nc1ccc2c(C)cc(=O)oc2c1`
Key: 41 µM

Exercise: Specify measured GI50 for `COc1ccc(NC(=[Se])Nc2ccc3c(C)cc(=O)oc3c2)cc1` .
Key: 33 µM

Exercise: Tell me its GI50 given `CCCCNC(=[Se])Nc1ccc2c(C)cc(=O)oc2c1` as the entry.
Key: 2.9 µM

Exercise: Give reported GI50 value for `Cc1cc(=O)oc2cc(N=C=[Se])ccc12`
Key: 3.6 µM

Exercise: Return value of GI50 for input `Cc1cc(=O)oc2cc(NC(=[Se])Nc3ccc4c(C)cc(=O)oc4c3)ccc12` , no commentary.
Key: 3.6 µM

Exercise: Name the recorded GI50 of the compound listed here: `Cc1cc(=O)oc2cc(NC(=[Se])Nc3ccc(Br)cc3)ccc12`
Key: 2.8 µM

Exercise: Look up GI50 of `Cc1cc(=O)oc2cc(NC(=[Se])Nc3ccc(C(F)(F)F)cc3)ccc12` and report it.
Key: 8.7 µM

---

Experiment: Selectivity index, ratio of GI50 for Cytotoxicity against human hTERT-BJ cells to ratio of GI50 for antiproliferative activity against human WiDr cells
Format: toxicity, cell-based
Conditions: hTERT-BJ cells versus WiDr cells, read-out: RatioGI50
Value Type: selectivity ratio

Exercise: Give me measured selectivity ratio, please, for this compound: `Cc1cc(=O)oc2cc(N=C=[Se])ccc12`
Key: ≤ 14
